- TEST_METHOD_NOTES: PK parameters after a single dose of three 50 mg tablets to a sample population (12)
- Type: in vivo
- COND: human, po, 150 mg, plasma, three 50 mg tablets of Example 4 in a single dose, read-out: AUCinf, adjusted geometric mean
MEASUREMENT_NAME: AUC(0-inf) (µg·h/mL)
State just the number; it will be interpreted in µg·h/mL.

Need AUC(0-inf), item `CC(C)c1cc2[nH]c(=O)n(NS(C)(=O)=O)c(=O)c2cc1-c1ccnn1C`
16.8

----------
- TEST_METHOD_NOTES: PK parameters after a single dose of three 50 mg tablets to a sample population (12)
- Type: in vivo
- COND: human, po, 150 mg, plasma, three 50 mg tablets of Example 4 in a single dose, read-out: AUClast, adjusted geometric mean
MEASUREMENT_NAME: AUC(0-t) (ng·h/mL)
State just the number; it will be interpreted in ng·h/mL.

Need AUC(0-t), item `CC(C)c1cc2[nH]c(=O)n(NS(C)(=O)=O)c(=O)c2cc1-c1ccnn1C`
16800
